- TGT: T1, T2 mechanosensitive channel from Thermoplasma volcanium, tag free (Thermoplasma volcanium)
- T1 construct: TVN0821, gene amplified from genomic DNA (DSM 4299 [GSS1*]); 297 amino acids per monomer; Cloned into pNIC28-Bsa4 (TEV site) and pET46 (Enterokinase site); In detergent (0.03 % DDM); also called T2 channel; tag free T2-channel; source: E. coli C43(DE3), purified (DDM solubilised, IMAC, tag cleavage, second IMAC, gel filtration); not shown: His-tag, N-terminal, cleaved
- T1 chain: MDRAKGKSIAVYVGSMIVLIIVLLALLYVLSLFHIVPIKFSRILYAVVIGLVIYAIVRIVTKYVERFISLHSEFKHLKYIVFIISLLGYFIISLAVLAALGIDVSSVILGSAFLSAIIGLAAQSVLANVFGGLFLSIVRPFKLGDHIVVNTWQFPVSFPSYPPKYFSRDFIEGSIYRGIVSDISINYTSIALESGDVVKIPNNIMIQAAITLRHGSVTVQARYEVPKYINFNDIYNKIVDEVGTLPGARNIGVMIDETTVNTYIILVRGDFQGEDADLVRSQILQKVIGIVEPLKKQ
- PROTOCOL: SPR; BIAcore 3000, 25 °C, 20 mM sodium phosphate pH 7.4, 150 mM NaCl, 0.03 % DDM; T2 channel amine-coupled on CM5 (1500 - 2000 RU); nanobodies 0.35 - 86.1 nM injected in triplicates; global fit to a simple bimolecular model, KD = kd/ka
- RUN PARAMETERS: both partners purified
MEASURED PARAMETER: kon (M⁻¹ s⁻¹)
Unit M⁻¹ s⁻¹ implied. Number only.

[
  {
    "BINDER": "nanobody 1 (VHH, pHEN6 vector; also called Nb 1; CA-number 3379; source: E. coli WK6 periplasm, purified (IMAC, gel filtration); not shown: His-tag, C-terminal, kept) VHH: QVQLQESGGGLVQPGGSLRLSCAASGRIPFITAMGWYRQAPGKQRELLASVTNSEITNYADSVKGRFTISRDNARNRVYLQMNSLKPEDTAVYYCNVKRAGNLIDYWGQGTQVTVSS",
    "kon [M⁻¹ s⁻¹]": "1.98e+06"
  }
]

stdin: Give the measured kon for nanobody 15 (VHH, pHEN6 vector; also called Nb 15; CA-number 3397; source: E. coli WK6 periplasm, purified (IMAC, gel filtration); not shown: His-tag, C-terminal, kept) VHH: QVQLQESGGGLVQPGGSLRLSCAASGSISTINHMGWYRQPPGKQRELVAVITRSGSTNYADSVKGRFTISRGNVKNTVYLQMNSVKAEDTAVYYCNAYTEFDRPYNHWGQGTQVTVSS
stdout: 1.96e+06
